Tested on: Staphylococcus aureus
experiment-notes: Antibacterial activity against methicillin-resistant Staphylococcus aureus CCARM 3167 after 24 hrs by two-fold serial dilution method
Assay type: functional
condition: CCARM 3167, 24 h
measured-attribute: MIC (µg/mL)
Give your result in µg/mL as a bare value.

Use the examples below as a reference point.
>>> value_reported("Cc1ccc(-c2nn(-c3ccc([N+](=O)[O-])cc3[N+](=O)[O-])cc2/C=N/NC(=N)N)c(C)c1")
2
>>> value_reported("CCn1cc(C(=O)O)c(=O)c2cc(F)c(N3CCNCC3)cc21 [NORFLOXACIN]")
8
>>> value_reported("N=C(N)N/N=C/c1cn(-c2ccc([N+](=O)[O-])cc2[N+](=O)[O-])nc1-c1ccc(Cl)cc1Cl")
2

Inquiry: Respond only with MIC recorded for "COc1cccc(-c2nn(-c3ccc([N+](=O)[O-])cc3[N+](=O)[O-])cc2/C=N/NC(=N)N)c1"
Reply text: 4

Inquiry: For the molecule "N=C(N)N/N=C/c1cn(-c2ccccc2)nc1-c1ccc(F)cc1" , report MIC.
Reply text: 8

Inquiry: Specify MIC for "N=C(N)N/N=C/c1cn(-c2ccc([N+](=O)[O-])cc2[N+](=O)[O-])nc1-c1ccccc1Br" and stop.
Reply text: 4

----------
Test system: Staphylococcus aureus
experiment-notes: Antibacterial activity against methicillin-resistant Staphylococcus aureus CCARM 3167 after 24 hrs by two-fold serial dilution method
Type: functional
condition: CCARM 3167, 24 h
measured-attribute: MIC (mg/L)
The answer is to be given in mg/L; state only the numeric part.

>>> value_reported("N=C(N)N/N=C/c1cn(-c2ccccc2)nc1-c1ccc(Br)cc1")
8
>>> value_reported("N=C(N)N/N=C/c1cn(-c2ccc([N+](=O)[O-])cc2[N+](=O)[O-])nc1-c1ccccc1")
8
>>> value_reported("N=C(N)N/N=C/c1cn(-c2ccc([N+](=O)[O-])cc2[N+](=O)[O-])nc1-c1ccccc1Cl")
4

Inquiry: Supply MIC value. Item: "N=C(N)N/N=C/c1cn(-c2ccc([N+](=O)[O-])cc2[N+](=O)[O-])nc1-c1cccc(Br)c1"
Reply text: 1

Inquiry: Tell me MIC reported for COc1c(N2CCNC(C)C2)c(F)cc2c(=O)c(C(=O)O)cn(C3CC3)c12 (stereo not drawn)
Reply text: 2

Inquiry: Please supply the value of reported MIC for the item "N=C(N)N/N=C/c1cn(-c2ccc([N+](=O)[O-])cc2[N+](=O)[O-])nc1-c1ccc(F)cc1"
Reply text: 4

----------
System: Staphylococcus aureus
experiment-notes: Antibacterial activity against quinolone-resistant Staphylococcus aureus CCARM 3519 after 24 hrs by two-fold serial dilution method
Type: functional
condition: CCARM 3519, 24 h
measured-attribute: MIC (µg/mL)
Answer format: numeric, µg/mL implied, no suffix.

Worked cases, answers included:
>>> value_reported("COc1ccc(-c2nn(-c3ccc([N+](=O)[O-])cc3[N+](=O)[O-])cc2/C=N/NC(=N)N)cc1")
4
>>> value_reported("COc1cccc(-c2nn(-c3ccc([N+](=O)[O-])cc3[N+](=O)[O-])cc2/C=N/NC(=N)N)c1")
4
>>> value_reported("N=C(N)N/N=C/c1cn(-c2ccc([N+](=O)[O-])cc2[N+](=O)[O-])nc1-c1ccc(F)cc1")
4
>>> value_reported("Cc1ccc(-c2nn(-c3ccccc3)cc2/C=N/NC(=N)N)cc1")
4
>>> value_reported("COc1c(N2CCNC(C)C2)c(F)cc2c(=O)c(C(=O)O)cn(C3CC3)c12 (stereo not drawn)")
4
>>> value_reported("N=C(N)N/N=C/c1cn(-c2ccccc2)nc1-c1ccc(F)cc1")
16
>>> value_reported("Cc1ccc(-c2nn(-c3ccc([N+](=O)[O-])cc3[N+](=O)[O-])cc2/C=N/NC(=N)N)c(C)c1")
4
>>> value_reported("N=C(N)N/N=C/c1cn(-c2ccc([N+](=O)[O-])cc2[N+](=O)[O-])nc1-c1ccc(Cl)cc1")
2

Inquiry: Answer with MIC of "N=C(N)N/N=C/c1cn(-c2ccccc2)nc1-c1cccc(Cl)c1" measured for Staphylococcus aureus.
Reply text: 2

Inquiry: Look up Staphylococcus aureus data: MIC of "N=C(N)N/N=C/c1cn(-c2ccc([N+](=O)[O-])cc2[N+](=O)[O-])nc1-c1ccccc1" , then report it.
Reply text: 8

Inquiry: Please respond with reported MIC (system Staphylococcus aureus) for "Cc1ccc(-c2nn(-c3ccc([N+](=O)[O-])cc3[N+](=O)[O-])cc2/C=N/NC(=N)N)cc1" .
Reply text: 2

Inquiry: Name the value of MIC reported for "N=C(N)N/N=C/c1cn(-c2ccc([N+](=O)[O-])cc2[N+](=O)[O-])nc1-c1ccccc1Br" when tested on Staphylococcus aureus.
Reply text: 8

Inquiry: Report MIC under test system Staphylococcus aureus for "N=C(N)N/N=C/c1cn(-c2ccccc2)nc1-c1ccc(Br)cc1" .
Reply text: 16

Inquiry: Write down the reported MIC (system: Staphylococcus aureus) of "N=C(N)N/N=C/c1cn(-c2ccc([N+](=O)[O-])cc2[N+](=O)[O-])nc1-c1ccccc1F"
Reply text: 8

Inquiry: Tell me its MIC on Staphylococcus aureus: "N=C(N)N/N=C/c1cn(-c2ccc([N+](=O)[O-])cc2[N+](=O)[O-])nc1-c1ccc(Br)cc1"
Reply text: 2

----------
Recorded inhibition in vivo at 50 mg/kg values for a group of compounds are listed next.
Test system: Mus musculus
experiment-notes: Antiinflammatory activity in mouse assessed as inhibition of xylene-induced ear edema at 50 mg/kg, ip administered 30 mins before xylene challenge relative to control
Assay type: functional

Take a look at these entries with their results.
>>> value_reported("Cc1ccc(-c2nn(-c3ccccc3)cc2/C=N/NC(=N)N)cc1")
"86.5%"
>>> value_reported("N=C(N)N/N=C/c1cn(-c2ccccc2)nc1-c1ccc(Br)cc1")
"42.8%"
>>> value_reported("O=C(N/N=C/c1cn(-c2ccc([N+](=O)[O-])cc2[N+](=O)[O-])nc1-c1cccc(Cl)c1)c1ccco1")
"26.2%"

Inquiry: Given the compound "COc1cccc(-c2nn(-c3ccc([N+](=O)[O-])cc3[N+](=O)[O-])cc2/C=N/NC(=N)N)c1" , write its reported inhibition in vivo at 50 mg/kg.
Reply text: 67.3%

Inquiry: Answer with reported inhibition in vivo at 50 mg/kg of "N=C(N)N/N=C/c1cn(-c2ccc([N+](=O)[O-])cc2[N+](=O)[O-])nc1-c1ccccc1F"
Reply text: 87.2%

----------
Below, each of the compounds is paired with its reported MIC value.
Tested on: Staphylococcus aureus
experiment-notes: Antibacterial activity against quinolone-resistant Staphylococcus aureus CCARM 3519 after 24 hrs by two-fold serial dilution method
Format: functional
condition: CCARM 3519, 24 h

Some compounds with known MIC results, for comparison:
>>> value_reported("N=C(N)N/N=C/c1cn(-c2ccc([N+](=O)[O-])cc2[N+](=O)[O-])nc1-c1ccccc1Cl")
"8 µg/mL"
>>> value_reported("O=C(N/N=C/c1cn(-c2ccc([N+](=O)[O-])cc2[N+](=O)[O-])nc1-c1cccc(Cl)c1)c1ccco1")
"> 64 µg/mL"
>>> value_reported("CCn1cc(C(=O)O)c(=O)c2cc(F)c(N3CCNCC3)cc21")
"> 64 µg/mL"

Moving on to another compound below.
Inquiry: Entry "Cc1onc(-c2ccccc2)c1C(=O)N[C@@H]1C(=O)N2[C@@H]1SC(C)(C)[C@@H]2C(=O)O" needs its MIC filled in; supply it.
Reply text: 1 µg/mL

----------
In this section we review reported MIC values for a set of compounds.
Test system: Staphylococcus aureus
experiment-notes: Antibacterial activity against methicillin-resistant Staphylococcus aureus CCARM 3506 after 24 hrs by two-fold serial dilution method
Assay type: functional
condition: CCARM 3506, 24 h

Example compounds with recorded MIC:
>>> value_reported("Cc1ccc(-c2nn(-c3ccc([N+](=O)[O-])cc3[N+](=O)[O-])cc2/C=N/NC(=O)c2ccco2)cc1")
"> 64 µg/mL"
>>> value_reported("O=C(N/N=C/c1cn(-c2ccc([N+](=O)[O-])cc2[N+](=O)[O-])nc1-c1ccccc1Br)c1ccco1")
"> 64 µg/mL"

API: the following record is the query input.
Inquiry: Annotate the compound "O=C(N/N=C/c1cn(-c2ccc([N+](=O)[O-])cc2[N+](=O)[O-])nc1-c1ccccc1F)c1ccco1" with its measured MIC.
Reply text: > 64 µg/mL

----------
Tested on: Mus musculus
experiment-notes: Antiinflammatory activity in mouse assessed as inhibition of xylene-induced ear edema at 50 mg/kg, ip administered 30 mins before xylene challenge relative to control
Type: functional
In this section, each of the molecules is paired with its reported inhibition in vivo at 50 mg/kg.
Kindly report the value followed by its unit.

These solved cases illustrate the format of a correct answer.
>>> value_reported("N=C(N)N/N=C/c1cn(-c2ccc([N+](=O)[O-])cc2[N+](=O)[O-])nc1-c1ccc(Cl)cc1")
"71.5%"
>>> value_reported("COc1ccc2c(c1)c(CC(=O)O)c(C)n2C(=O)c1ccc(Cl)cc1 [INDOMETHACIN]")
"45.2%"
>>> value_reported("N=C(N)N/N=C/c1cn(-c2ccc([N+](=O)[O-])cc2[N+](=O)[O-])nc1-c1ccc(F)cc1")
"61.9%"
>>> value_reported("Cc1cccc(-c2nn(-c3ccc([N+](=O)[O-])cc3[N+](=O)[O-])cc2/C=N/NC(=N)N)c1")
"76.9%"

Could you now consider this next molecule?
Inquiry: Return the recorded inhibition in vivo at 50 mg/kg value; entry: "N=C(N)N/N=C/c1cn(-c2ccc([N+](=O)[O-])cc2[N+](=O)[O-])nc1-c1ccccc1Cl"
Reply text: 84.6%
